molecular target: HLA-A*11:01; test: IEDB peptide-MHC binding, purified MHC/direct/fluorescence; filed as Kd, often an IC50 or EC50 that approximates it; bounds were set here for any values at or beyond the usual limits of such assays; settings: source organism: Influenza A virus (A/Belfast/53582/2004(H3N?))
pKd: −log10 of the molar value.
endpoint: pKd

* WILDRLFFK | 8.68

###

target: HLA-C*15:02; experiment: IEDB peptide-MHC binding, purified MHC/direct/fluorescence; filed as Kd, often an IC50 or EC50 that approximates it; bounds were set here for any values at or beyond the usual limits of such assays; settings: source organism: Vaccinia virus WR
pKd: −log10 of the molar value.
endpoint: pKd

• FTSSFYNYV = 7.72

###

target: HLA-A*02:01; assay: IEDB peptide-MHC binding, purified MHC/direct/fluorescence; filed as Kd, often an IC50 or EC50 that approximates it; bounds were set here for any values at or beyond the usual limits of such assays; details: source organism: Aromatoleum aromaticum
endpoint: Kd (µM)

• VLEGFEGDL = 17

###

target: HLA-B*08:01; assay: IEDB peptide-MHC binding, purified MHC/competitive/radioactivity; filed as Kd, often an IC50 or EC50 that approximates it; bounds were set here for any values at or beyond the usual limits of such assays; conditions: source organism: Hepatitis C virus (isolate 1)
endpoint: Kd

- KLVALGINAV: ≥ 70 µM

###

target: HLA-B*18:01; test: IEDB peptide-MHC binding, purified MHC/direct/fluorescence; filed as Kd, often an IC50 or EC50 that approximates it; bounds were set here for any values at or beyond the usual limits of such assays; details: source organism: Giardia lamblia ATCC 50803
pKd: −log10 of the molar value.
endpoint: pKd

- MTFPLHFRS: ≤ 4.70

###

molecular target: HLA-A*11:01; test: IEDB peptide-MHC binding, purified MHC/direct/fluorescence; filed as Kd, often an IC50 or EC50 that approximates it; bounds were set here for any values at or beyond the usual limits of such assays; conditions: source organism: Salmonella enterica
endpoint: Kd

• MQQSGDEAF = ≥ 20 µM
• AMMWRIAQL = ≥ 20 µM
• RRRQWASCM = ≥ 20 µM

###

molecular target: HLA-A*68:01; test: IEDB peptide-MHC binding, purified MHC/competitive/radioactivity; filed as Kd, often an IC50 or EC50 that approximates it; bounds were set here for any values at or beyond the usual limits of such assays; settings: source organism: Lymphocytic choriomeningitis virus (strain Armstrong)
Under this convention, YES denotes Kd strictly below 4000 nM and NO denotes Kd at or above 4000 nM.

• TAVAKCNVNH = NO
• RNPYENILYK = NO
• LMRFITAETH = YES
• SYQYLIIQNR = YES
• GNFSWFPHK = YES
• TYLGPLSCK = YES

###

target: HLA-B*51:01; test: IEDB peptide-MHC binding, purified MHC/competitive/fluorescence; filed as Kd, often an IC50 or EC50 that approximates it; bounds were set here for any values at or beyond the usual limits of such assays; details: source organism: Giardia lamblia ATCC 50803
endpoint: Kd

- MTFPLHFRS: ≥ 5 µM

###

molecular target: HLA-B*58:01; experiment: IEDB peptide-MHC binding, purified MHC/direct/fluorescence; filed as Kd, often an IC50 or EC50 that approximates it; bounds were set here for any values at or beyond the usual limits of such assays; settings: source organism: Escherichia coli O157:H7
pKd: −log10 of the molar value.
endpoint: pKd

* YQAFRTKVH | ≤ 4.70

###

molecular target: HLA-A*02:01; assay: IEDB peptide-MHC binding, purified MHC/competitive/fluorescence; bounds were set here for any values at or beyond the usual limits of such assays; conditions: source organism: Vaccinia virus WR
pIC50: −log10 of the molar value.
endpoint: pIC50

* KFMSNGEHV | 4.56

###

biological target: HLA-A*30:01; assay: IEDB peptide-MHC binding, purified MHC/direct/fluorescence; filed as Kd, often an IC50 or EC50 that approximates it; bounds were set here for any values at or beyond the usual limits of such assays; settings: source organism: Vibrio cholerae
pKd: −log10 of the molar value.
endpoint: pKd

* GEHWLGRIW | ≤ 4.70

###

molecular target: HLA-A*11:01; experiment: IEDB peptide-MHC binding, purified MHC/direct/fluorescence; filed as Kd, often an IC50 or EC50 that approximates it; bounds were set here for any values at or beyond the usual limits of such assays; settings: source organism: Yellow fever virus 17D
pKd: −log10 of the molar value.
endpoint: pKd

* CRTAFKPVL | ≤ 4.70

###

target: HLA-A*02:07; assay: IEDB peptide-MHC binding, purified MHC/competitive/radioactivity; filed as Kd, often an IC50 or EC50 that approximates it; bounds were set here for any values at or beyond the usual limits of such assays; details: source organism: Hepatitis C virus (isolate Taiwan)
endpoint: Kd

• YLVAYQATV = 2300 nM

###

target: HLA-B*83:01; assay: IEDB peptide-MHC binding, purified MHC/competitive/fluorescence; filed as Kd, often an IC50 or EC50 that approximates it; bounds were set here for any values at or beyond the usual limits of such assays; conditions: source organism: Homo sapiens
pKd: −log10 of the molar value.
endpoint: pKd

* MAWLFFWAI | ≤ 5.30

###

biological target: HLA-B*07:02; experiment: IEDB peptide-MHC binding, purified MHC/direct/fluorescence; filed as Kd, often an IC50 or EC50 that approximates it; bounds were set here for any values at or beyond the usual limits of such assays; settings: source organism: Lake Victoria marburgvirus - Popp
pKd: −log10 of the molar value.
endpoint: pKd

* KNYPASLHK | ≤ 4.70

###

target: HLA-B*08:01; assay: IEDB peptide-MHC binding, purified MHC/competitive/radioactivity; filed as Kd, often an IC50 or EC50 that approximates it; bounds were set here for any values at or beyond the usual limits of such assays; settings: source organism: Hepacivirus hominis
pKd: −log10 of the molar value.
endpoint: pKd

• HSKKKCDDL = ≤ 4.24

###

biological target: HLA-A*24:02; assay: IEDB peptide-MHC binding, purified MHC/competitive/radioactivity; bounds were set here for any values at or beyond the usual limits of such assays; conditions: source organism: Homo sapiens
endpoint: IC50 (nM)

* KYAGESFPGI | 838

###

target: HLA-B*18:01; experiment: IEDB peptide-MHC binding, purified MHC/direct/fluorescence; filed as Kd, often an IC50 or EC50 that approximates it; bounds were set here for any values at or beyond the usual limits of such assays; settings: source organism: Escherichia coli O157:H7 str. EC869
pKd: −log10 of the molar value.
endpoint: pKd

* SQFNHWFGE | ≤ 4.70

###

molecular target: HLA-A*24:03; assay: IEDB peptide-MHC binding, purified MHC/direct/fluorescence; filed as Kd, often an IC50 or EC50 that approximates it; bounds were set here for any values at or beyond the usual limits of such assays; conditions: source organism: Marburg virus - Musoke, Kenya, 1980
endpoint: Kd (nM)

• GFPSLESSF = 39.5

###

target: HLA-A*69:01; assay: IEDB peptide-MHC binding, purified MHC/competitive/fluorescence; filed as Kd, often an IC50 or EC50 that approximates it; bounds were set here for any values at or beyond the usual limits of such assays; settings: source organism: Escherichia coli str. K-12 substr. W3110
endpoint: Kd

* IQFDWYPTS | ≥ 20 µM

###

target: HLA-B*40:01; assay: IEDB peptide-MHC binding, purified MHC/direct/fluorescence; filed as Kd, often an IC50 or EC50 that approximates it; bounds were set here for any values at or beyond the usual limits of such assays; conditions: source organism: Camelpox virus M-96
endpoint: Kd

* MTRVTNNVY | ≥ 20 µM

###

Item-by-item account of pKd
target: HLA-A*31:01; experiment: IEDB peptide-MHC binding, purified MHC/competitive/radioactivity; filed as Kd, often an IC50 or EC50 that approximates it; bounds were set here for any values at or beyond the usual limits of such assays; conditions: source organism: Dengue virus 1 Brazil/97-11/1997
pKd: −log10 of the molar value.
endpoint: pKd

- VMAFIAFLR: 8.88
- GVCGIRSATR: ≤ 4.15
- LTWLGLNSR: ≤ 4.20

###

biological target: HLA-B*48:01; test: IEDB peptide-MHC binding, purified MHC/direct/fluorescence; filed as Kd, often an IC50 or EC50 that approximates it; bounds were set here for any values at or beyond the usual limits of such assays; details: source organism: Cowpox virus
endpoint: Kd

- ILQDRIRMY: ≥ 20 µM

###

molecular target: HLA-B*15:01; assay: IEDB peptide-MHC binding, purified MHC/competitive/radioactivity; filed as Kd, often an IC50 or EC50 that approximates it; bounds were set here for any values at or beyond the usual limits of such assays; details: source organism: Dengue virus 4 Philippines/H241/1956
endpoint: Kd

- LGAQALPVY: 3.42 nM

Attribution: the Immune Epitope Database (IEDB)
